Attribute: GI50
tested on: PC-3; assay: NCI tumour cell line growth inhibition, 48 h
The source made the active and inactive calls. No stated cut-off is given here; in the data, active = GI50 up to about 1.1 µM and inactive = higher.
result.type: GI50

* CCOP(=O)(O)C1C(CO)OC(n2ccc(=O)[nH]c2=O)C1O (stereo not given) | > 100 µM (inactive)
* CCCC(C)NC(=O)c1ccc(N(C)Cc2cnc3nc(N)nc(N)c3n2)cc1 (stereo not given) | 9.84 µM (inactive)
* O=c1[nH]nc(Cc2ccccc2)n1/N=C/c1ccc(/C=N/n2c(Cc3ccccc3)n[nH]c2=O)cc1 | > 100 µM (inactive)
* CCCCc1c(C(=O)OC(C)(C)C)cc(C#Cc2cc(C(=O)OC(C)(C)C)c(CCCC)c(C(=O)OC(C)(C)C)c2)cc1C(=O)OC(C)(C)C | > 100 µM (inactive)
* Cc1ccc(/S(Cc2ccccc2)=N\S(=O)(=O)c2ccc(C)cc2)cc1 (stereo not given) | > 100 µM (inactive)
* CCNc1ncnc2nn[nH]c12 | > 100 µM (inactive)
* CO[C@]12C#CC=CC#C[C@@H](O)[C@]3(CCC1)O[C@@]23c1cccc(O)c1 | > 100 µM (inactive)
* N#CC1(C#N)C2(c3ccccc3)OC(c3ccccc3)(c3cc4ccccc4cc32)C1(C#N)C#N | 17.1 µM (inactive)
* CC(C)(C)OC(=O)NCC(CNC(=O)OC(C)(C)C)c1nc(C(N)=O)cs1 | > 100 µM (inactive)
* CCCCCCCCC[C@@H]1C[C@@H]2CCC3C(C(=O)OC)=C(C)N=C(N1)N32 (stereo not given in full) | 3.64 µM (inactive)
